Emax values by entry
# assay.system: ΔF508-CFTR (Homo sapiens, UniProt P13569, DEL508-508)
# Construct: expressed in transfected cells
# Sequence (P13569 with tags, fused parts or gaps DEL508-508): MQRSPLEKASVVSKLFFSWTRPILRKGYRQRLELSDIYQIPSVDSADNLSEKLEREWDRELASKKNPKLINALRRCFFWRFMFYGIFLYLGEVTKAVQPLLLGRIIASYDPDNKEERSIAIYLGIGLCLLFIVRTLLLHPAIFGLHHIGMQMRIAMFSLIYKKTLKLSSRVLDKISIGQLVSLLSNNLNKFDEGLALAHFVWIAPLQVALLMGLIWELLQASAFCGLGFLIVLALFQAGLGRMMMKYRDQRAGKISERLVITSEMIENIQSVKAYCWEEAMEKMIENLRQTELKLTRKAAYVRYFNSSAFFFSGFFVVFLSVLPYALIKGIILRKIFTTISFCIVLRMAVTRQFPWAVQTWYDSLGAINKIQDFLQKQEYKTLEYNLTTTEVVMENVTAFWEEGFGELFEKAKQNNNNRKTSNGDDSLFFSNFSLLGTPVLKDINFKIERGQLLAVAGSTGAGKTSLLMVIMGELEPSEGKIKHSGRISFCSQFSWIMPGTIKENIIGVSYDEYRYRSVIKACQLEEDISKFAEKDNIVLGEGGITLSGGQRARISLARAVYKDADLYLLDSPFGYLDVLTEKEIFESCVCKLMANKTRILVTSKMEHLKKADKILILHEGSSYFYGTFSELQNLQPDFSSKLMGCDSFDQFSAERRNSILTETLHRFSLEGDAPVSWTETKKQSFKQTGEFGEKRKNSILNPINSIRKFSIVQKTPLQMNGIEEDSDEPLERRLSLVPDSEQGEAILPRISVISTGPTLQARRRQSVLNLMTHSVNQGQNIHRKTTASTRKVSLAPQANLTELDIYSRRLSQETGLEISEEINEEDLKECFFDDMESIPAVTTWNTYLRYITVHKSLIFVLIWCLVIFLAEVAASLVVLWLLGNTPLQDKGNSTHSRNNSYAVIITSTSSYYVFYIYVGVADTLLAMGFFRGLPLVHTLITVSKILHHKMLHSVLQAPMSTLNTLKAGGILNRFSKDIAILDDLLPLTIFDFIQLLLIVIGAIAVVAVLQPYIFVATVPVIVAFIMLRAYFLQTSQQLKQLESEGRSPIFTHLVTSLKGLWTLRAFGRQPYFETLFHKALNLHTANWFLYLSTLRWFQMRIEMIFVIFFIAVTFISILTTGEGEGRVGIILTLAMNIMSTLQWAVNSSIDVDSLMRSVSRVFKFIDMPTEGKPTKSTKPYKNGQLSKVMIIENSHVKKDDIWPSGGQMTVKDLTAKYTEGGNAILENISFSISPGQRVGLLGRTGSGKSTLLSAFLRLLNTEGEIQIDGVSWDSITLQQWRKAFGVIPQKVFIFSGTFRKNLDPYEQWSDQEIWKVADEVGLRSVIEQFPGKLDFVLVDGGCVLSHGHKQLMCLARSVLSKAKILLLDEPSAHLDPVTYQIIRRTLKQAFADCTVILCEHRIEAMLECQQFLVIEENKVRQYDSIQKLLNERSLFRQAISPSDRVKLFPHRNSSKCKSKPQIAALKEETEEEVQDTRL
# assay.overview: Membrane potential optical assay (FRET/VIPR), identification of correction compounds
# Assay type: cell-based
# experimental.parameters: relative efficacy
# Excerpt: I) Membrane Potential Optical Methods for Assaying ΔF508-CFTR Modulation Properties of Compounds […] These voltage sensitive assays are based on the change in fluorescence resonant energy transfer (FRET) between the membrane-soluble, voltage-sensitive dye, DiSBAC2(3), and a fluorescent phospholipid, CC2-DMPE, which is attached to the outer leaflet of the plasma membrane and acts as a FRET donor. […]

- molecule: "Cc1cccc(C(=O)N2CCN(C(C)c3nc4ccc(Cl)cc4c(=O)n3C)CC2)c1 (stereo not shown)"
  Emax: "25 to 100%"
- molecule: "CC(c1nc2ccccc2c(=O)n1C)N1CCN(C(=O)c2ccccc2)CC1 (stereo not shown)"
  Emax: "< 25%"
- molecule: "Cc1ccccc1S(=O)(=O)N1CCN(C(C)c2nc3ccc(Cl)cc3c(=O)n2C)CC1 (stereo not shown)"
  Emax: "25 to 100%"
- molecule: "CSc1nccc(-c2ccc(S(=O)(=O)N3CCN(C(C)c4nc5ccccc5c(=O)n4C)CC3)s2)n1 (stereo not shown)"
  Emax: "< 25%"
- molecule: "COc1ccc(S(=O)(=O)N2CCN(C(C)(C)c3nc4ccc(Cl)cc4c(=O)n3C)CC2)cc1"
  Emax: "25 to 100%"
- molecule: "CNc1nc(C(C)N2CCN(S(=O)(=O)c3ccc(Cl)cc3)CC2)nc2ccccc12 (stereo not shown)"
  Emax: "25 to 100%"
- molecule: "CC(=O)NCCn1c(C(C)N2CCN(S(=O)(=O)c3ccc(Br)cc3)CC2)nc2ccccc2c1=O (stereo not shown)"
  Emax: "25 to 100%"
- molecule: "CC(c1nc2ccccc2c(=O)n1C)N1CCN(S(=O)(=O)c2csc3ccccc23)CC1 (stereo not shown)"
  Emax: "25 to 100%"
- molecule: "COc1cc(C(=O)N2CCN(C(C)c3nc4ccc(Cl)cc4c(=O)n3C)CC2)cc(OC)c1OC (stereo not shown)"
  Emax: "< 25%"
- molecule: "CC(=O)Nc1ccc(S(=O)(=O)N2CCN(C(C)c3nc4ccccc4c(=O)n3C)CC2)cc1 (stereo not shown)"
  Emax: "< 25%"
- molecule: "COc1ccc(S(=O)(=O)N2CCN(C(C)c3nc(N4CCCCC4)c4cc(F)ccc4n3)CC2)cc1 (stereo not shown)"
  Emax: "> 100%"
- molecule: "COc1ccc(S(=O)(=O)N2CCN(C(C)c3nc4ccc(F)cc4c(=O)[nH]3)CC2)cc1 (stereo not shown)"
  Emax: "25 to 100%"
- molecule: "CC(c1nc2ccccc2c(=O)n1C)N1CCN(S(=O)(=O)c2ccc(OC(F)(F)F)cc2)CC1 (stereo not shown)"
  Emax: "25 to 100%"
- molecule: "COc1ccc(S(=O)(=O)N2CCN(C(C)c3nc(N(C)Cc4ccccc4)c4ccccc4n3)CC2)cc1 (stereo not shown)"
  Emax: "> 100%"
- molecule: "CC(c1nc2ccccc2c(=O)n1C)N1CCN(S(=O)(=O)c2ccc(-c3ccccn3)s2)CC1 (stereo not shown)"
  Emax: "< 25%"
- molecule: "COc1ccc(S(=O)(=O)N2CCN(C(C)c3nc4ccccc4c(=O)n3CC(C)C)CC2)cc1 (stereo not shown)"
  Emax: "> 100%"
